src = patent US7655665B2

# Tested on: Aphis craccivoral
# assay: Insecticidal activity against Aphis craccivoral by immersing (dipping aphids on bean sprout)
# Assay type: in vivo
# condition.parameters: 500 ppm; immersing (dipped 5 seconds); counted after 24 hours; 23° C.
For each record, write down the corresponding mortality (%) (500 ppm) Aphis.
Number in %, nothing else.

Fill in the blank: the reported mortality (%) (500 ppm) Aphis of O=C(OC1CCC([N+](=O)[O-])=C2N(Cc3cnc(Cl)s3)CCN21)c1cc(F)c(Cl)cc1Cl (centres unmarked) is ____.
59

Fill in the blank: the reported mortality (%) (500 ppm) Aphis of CC(C)(C)COC1CCC([N+](=O)[O-])=C2N(Cc3ccc(Cl)nc3)CCN21 (racemic) is ____.
100

Fill in the blank: the reported mortality (%) (500 ppm) Aphis of O=[N+]([O-])C1=C2N(Cc3cnc(Cl)s3)CCN2C(OS(=O)(=O)c2ccccc2)CC1 (centres unmarked) is ____.
6

Fill in the blank: the reported mortality (%) (500 ppm) Aphis of CCOC1CCC([N+](=O)[O-])=C2N(Cc3cnc(Cl)s3)CCN21 (racemic) is ____.
100

Fill in the blank: the reported mortality (%) (500 ppm) Aphis of COC1CCC([N+](=O)[O-])=C2N(CC3CCOC3)CCN21 (centres unmarked) is ____.
100

Fill in the blank: the reported mortality (%) (500 ppm) Aphis of CCC(C)SC1CCC([N+](=O)[O-])=C2N(Cc3ccc(Cl)nc3)CCN21 (centres unmarked) [Compound 144] is ____.
12

Fill in the blank: the reported mortality (%) (500 ppm) Aphis of O=[N+]([O-])C1=C2N(Cc3ccc(Cl)nc3)CCCN2C(O)CC1 (centres unmarked) is ____.
6

Fill in the blank: the reported mortality (%) (500 ppm) Aphis of O=C(OC1CCC([N+](=O)[O-])=C2N(Cc3cnc(Cl)s3)CCN21)C(Cl)(Cl)Cl (centres unmarked) is ____.
93

Fill in the blank: the reported mortality (%) (500 ppm) Aphis of CC(C)OC1CCC([N+](=O)[O-])=C2N(CC3CCOC3)CCCN21 (centres unmarked) is ____.
10

Fill in the blank: the reported mortality (%) (500 ppm) Aphis of CC(C)(C)OC1CCC([N+](=O)[O-])=C2N(Cc3cnc(Cl)s3)CCCN21 (centres unmarked) is ____.
80

Fill in the blank: the reported mortality (%) (500 ppm) Aphis of CCCCOC1CCC([N+](=O)[O-])=C2N(Cc3ccc(Cl)nc3)CCCN21 (centres unmarked) is ____.
52

Fill in the blank: the reported mortality (%) (500 ppm) Aphis of CC(C)CCSC1CCC([N+](=O)[O-])=C2N(Cc3ccc(Cl)nc3)CCN21 (centres unmarked) is ____.
67

Fill in the blank: the reported mortality (%) (500 ppm) Aphis of CCOCCOC1CCC([N+](=O)[O-])=C2N(Cc3ccc(Cl)nc3)CCN21 (racemic) is ____.
100

Fill in the blank: the reported mortality (%) (500 ppm) Aphis of C=CCOC1CCC([N+](=O)[O-])=C2N(Cc3cnc(Cl)s3)CCN21 (racemic) is ____.
89

Fill in the blank: the reported mortality (%) (500 ppm) Aphis of O=[N+]([O-])C1=C2N(Cc3cnc(Cl)s3)CCN2C(OS(=O)(=O)C(F)(F)F)CC1 (centres unmarked) is ____.
56

Fill in the blank: the reported mortality (%) (500 ppm) Aphis of O=C(OC1CCC([N+](=O)[O-])=C2N(Cc3cnc(Cl)s3)CCN21)c1ccccn1 (centres unmarked) is ____.
4

Fill in the blank: the reported mortality (%) (500 ppm) Aphis of COCCOC1CCC([N+](=O)[O-])=C2N(CC3CCOC3)CCN21 (centres unmarked) is ____.
100
